FYI, the data here is from the Immune Epitope Database (IEDB).

target: HLA-A*31:01; experiment: IEDB peptide-MHC binding, purified MHC/competitive/radioactivity; filed as Kd, often an IC50 or EC50 that approximates it; bounds were set here for any values at or beyond the usual limits of such assays; conditions: source organism: Vaccinia virus WR
Measured log10 of Kd values are reported for all entries that follow.
Log scale reminder: Kd in µM, then log10 taken.

HSVFKGFSDK : 0.15
YLTMKAIEK : 1.06
QIFEVYWYL : -0.84
GFMRFFQLLR : -1.27
QMLTSGEYK : -1.55

Briefly, log10 of Kd measured for FSKSTSPTR : -1.69

The recorded log10 of Kd for SSRVDRYSKK is -0.08

Value of measured log10 of Kd for the entry FSNTILLSDK : 0.10

The reported value for YSHLLPTQR in terms of log10 of Kd is -1.64

====

Entries annotated with measured Kd
target: HLA-A*02:06; assay: IEDB peptide-MHC binding, purified MHC/competitive/radioactivity; filed as Kd, often an IC50 or EC50 that approximates it; bounds were set here for any values at or beyond the usual limits of such assays; conditions: source organism: Vaccinia virus WR
Numbers only here, please. The scale is nM.

IVNCLSLSNL : 1280
MAAAKTPVI : 672
SIYIAVANCV : 1000
LTHFNNNENV : 996
CAVNTPVSM : 1520

response.value for CAVIPFDDI (field: Kd) = 1160

Per the record, TLLGLILFVL has Kd of 672

====

# Kd values compiled below
biological target: HLA-A*23:01; test: IEDB peptide-MHC binding, purified MHC/competitive/radioactivity; filed as Kd, often an IC50 or EC50 that approximates it; bounds were set here for any values at or beyond the usual limits of such assays; details: source organism: SARS coronavirus Tor2
Hi! Could you send only the number? It should be in µM, unit omitted.

Reference set, count: 3
LFLAFVVFLL : 0.846
VYRGTTTYKL : 0.101
RLSFKELLVY : 14.7

Now consider the entry below.
Sample MFLARAIVF ; Kd observed: 19.4

====

# Kd listing for each entry below
target: HLA-A*33:01; assay: IEDB peptide-MHC binding, purified MHC/competitive/radioactivity; filed as Kd, often an IC50 or EC50 that approximates it; bounds were set here for any values at or beyond the usual limits of such assays; conditions: source organism: Vaccinia virus WR

ILTYNKTSK : ≥ 20.1 µM

# sequence ETKITFALKK ; its Kd = 3.2 µM

Summary for this sequence, SIFPANINDK : Kd is ≥ 46 µM

The sequence listed as PLYIDISDVK shows Kd equal to ≥ 56.3 µM

Lab note: RLLIWAYLSK gave Kd of 4.87 µM

The recorded Kd for entry DLVKSYSLIR equals 0.579 µM

Kd reported for this sequence HSVFKGFSDK : 14.6 µM

// Kd value for LLIWAYLSK : ≥ 37.1 µM

For record IICEDAMYY the listed Kd is ≥ 77.7 µM

So, PSTVKTNLY ? Its Kd was 3.68 µM

For reference, reported Kd for LFKRERDAIK stands at 8.28 µM

Per the records, this sequence ( YANLDDVYSY ) has Kd equal to 15.6 µM

Recorded result, FSNTILLSDK , Kd: ≥ 62.6 µM

Short answer for YSHLLPTQR : Kd was 0.892 µM

For this sequence ( TAVCMKCFK ), measured Kd is 4.46 µM

Reported Kd ( AVVADLSAR ) = 0.712 µM

Entry QIFEVYWYL , Kd reported as 0.775 µM
